Readings of LD50 for the listed compounds
Assay: rat acute oral toxicity
Details: in vivo

Here's what some known entries look like.
COMPOUND	LD50
C1CCC2CCCCC2C1 (stereo unspecified)	4170 mg/kg
CC(C)CN	224 mg/kg

Query block: Answer with reported LD50 of O=C(O)c1cccnc1
Result block: 4500 mg/kg

Query block: Answer with reported LD50 of CCSC(=O)N(CC)C1CCCCC1
Result block: 1680 mg/kg

Query block: Answer with reported LD50 of C[Si]1(CCC(F)(F)F)O[Si](C)(CCC(F)(F)F)O[Si](C)(CCC(F)(F)F)O1 (stereo unspecified)
Result block: 180 mg/kg

Query block: Answer with reported LD50 of COC(=O)CCS
Result block: 182 mg/kg

Query block: Answer with reported LD50 of C[Si](C)(Cl)Cl
Result block: 595 mg/kg

Query block: Answer with reported LD50 of CCCCCCCCCCCCCCCCCC[N+](C)(C)CCCCCCCCCCCCCCCCCC
Result block: 11300 mg/kg

Query block: Answer with reported LD50 of Cl/C=C\CCl
Result block: 81.5 mg/kg

Query block: Answer with reported LD50 of CCCCCCCCCCCCCCCCCCN(C)C
Result block: 2120 mg/kg

Query block: Answer with reported LD50 of CCCCO
Result block: 790 mg/kg

Query block: Answer with reported LD50 of N#Cc1ccccc1O
Result block: 300 mg/kg
